Examples of molecules with documented 384-well COUNTERSCREEN Efficacy (%) follow.
- testTarget: GST-CIB1 : F-scrambled peptide (Homo sapiens)
- Construct: made in house; host or cells: BL-21 plus RIL cells (E. coli)
- Sequence (Q99828 1-191): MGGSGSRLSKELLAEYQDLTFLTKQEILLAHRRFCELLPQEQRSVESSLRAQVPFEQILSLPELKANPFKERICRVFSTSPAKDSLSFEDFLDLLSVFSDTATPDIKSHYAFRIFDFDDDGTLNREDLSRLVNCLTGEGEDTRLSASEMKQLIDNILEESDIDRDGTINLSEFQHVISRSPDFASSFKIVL
- protocolSummary: FP scrambled-peptide counter screen, 384-well format
- Assay type: binding
- protocolConditions: F-scrambled peptide
The figure you give is taken to be in %; do not add the unit.

Worked cases, answers included:
- molecule: "O=C(c1cccs1)c1no[n+]([O-])c1C(=O)c1cccs1 [NCGC00071855-04]"
  testTarget: "GST-CIB1 : F-scrambled peptide (Homo sapiens)"
  valueMeasured: 50
- molecule: "CC(O)c1ccc(-c2ccc3ncnc(NCc4nccs4)c3c2)o1.O=C(O)C(F)(F)F (stereo not drawn) [NCGC00238382-01]"
  testTarget: "GST-CIB1 : F-scrambled peptide (Homo sapiens)"
  valueMeasured: 36
- molecule: "C=CCNc1oc(-c2ccc(-c3ccccc3)cc2)nc1C#N.O=C(O)C(F)(F)F [NCGC00183413-01]"
  testTarget: "GST-CIB1 : F-scrambled peptide (Homo sapiens)"
  valueMeasured: 58
- molecule: "Cc1ccc(C)n1-c1cccc(C(=O)O)c1.O=C(O)C(F)(F)F [NCGC00060597-02]"
  testTarget: "GST-CIB1 : F-scrambled peptide (Homo sapiens)"
  valueMeasured: 24

Q) What does the record list as 384-well COUNTERSCREEN Efficacy (%) for Cc1cc(F)ccc1S(=O)(=O)Nc1cnccc1C(=O)Nc1nc(-c2ccccc2)cs1 [NCGC00345106-03] ?
A) 38

Q) Find the recorded 384-well COUNTERSCREEN Efficacy (%) belonging to Cc1ccc(Cl)cc1NC(=O)c1nc[nH]c1C(=O)Nc1nc2ccccc2[nH]1 [NCGC00244259-01] and report it.
A) 48

Q) Could you share which 384-well COUNTERSCREEN Efficacy (%) value was measured for COc1cccc(-c2csc(NC(=O)c3ccncc3NS(=O)(=O)c3ccc(C)cc3)n2)c1 [NCGC00319006-02] ?
A) 18

Q) Could you tell me which 384-well COUNTERSCREEN Efficacy (%) is on file for Br.CCCCCCCCCCCCCCCC[N+](C)(C)C.[Br-] [NCGC00164283-07] ?
A) 44

Q) Could you tell me which 384-well COUNTERSCREEN Efficacy (%) is on file for N[C@@H](Cc1ccc(Oc2cc(I)c(O)c(I)c2)c(I)c1)C(=O)O [NCGC00344545-01] ?
A) 51

Q) Record request: 384-well COUNTERSCREEN Efficacy (%) value, item O=Cc1c(-c2ccccc2)no[n+]1[O-] [NCGC00168371-01]
A) 51

* * *

// Curve Class lookup, one value per entry
- testTarget: CIB1 and αIIb interaction (CIB1-GST : F-αIIb peptide) (Homo sapiens)
- Construct: made in house; host or cells: BL-21 plus RIL cells (E. coli)
- protocolSummary: FP assay, 1536-well qHTS format (primary and confirmatory screen)
- Format: binding
- protocolConditions: qHTS primary screen hits, Table S2; negative sign = inhibitory curve; several classes where COUNT > 1

- chemSmiles: "C[C@H](Cc1ccc(O)c(O)c1)[C@@H](C)Cc1ccc(O)c(O)c1"
  measuredQuantity: "Curve Class"
  valueMeasured: -2.4
- chemSmiles: "O=C(Nc1ccc(S(=O)(=O)N2CCOCC2)cc1)c1ccc(N2CCc3ccccc3C2)cc1"
  measuredQuantity: "Curve Class"
  valueMeasured: -2.4
- chemSmiles: "Cc1ccc(C)n1-c1ccc(C(=O)O)cc1.O=C(O)C(F)(F)F"
  measuredQuantity: "Curve Class"
  valueMeasured: -2.2

Next compound, please.
Q) Form field - read-out: Curve Class; system: CIB1 and αIIb interaction (CIB1-GST : F-αIIb peptide) (Homo sapiens); submitted item: N#Cc1ccc(NS(=O)(=O)c2ccc(NC(=O)Cc3ccc(F)c(Cl)c3)cc2)cc1.O=C(O)C(F)(F)F
A) -1.4

* * *

- testTarget: CIB1 and αIIb interaction (CIB1-GST : F-αIIb peptide) (Homo sapiens, UniProt Q99828)
- Construct: made in house; host or cells: BL-21 plus RIL cells (E. coli)
- protocolSummary: FP assay, 1536-well qHTS format (primary and confirmatory screen)
- Format: binding
- protocolConditions: qHTS primary screen of LOPAC/NPACT libraries; negative sign = inhibitory curve
measuredQuantity: Curve Class
API note: the answer field is a bare number with no unit suffix.

- chemSmiles: "CCCN1C[C@H](CSC)C[C@@H]2c3cccc4[nH]cc(c34)C[C@H]21"
  testTarget: "CIB1 and αIIb interaction (CIB1-GST : F-αIIb peptide) (Homo sapiens, UniProt Q99828)"
  Curve Class: -2.2
- chemSmiles: "C=C1C(=O)O[C@H]2C3=C(C)CCC[C@]3(C)C(=O)C[C@@H]12"
  testTarget: "CIB1 and αIIb interaction (CIB1-GST : F-αIIb peptide) (Homo sapiens, UniProt Q99828)"
  Curve Class: -2.4
- chemSmiles: "O=C1OCc2cc3cccc(O[C@@H]4O[C@H](CO)[C@@H](O)[C@H](O)[C@H]4O)c3c(O)c21"
  testTarget: "CIB1 and αIIb interaction (CIB1-GST : F-αIIb peptide) (Homo sapiens, UniProt Q99828)"
  Curve Class: -2.4

Q) Report Curve Class for C=C1C(=O)O[C@@H]2[C@H]3C(C)=CC(=O)C3=C(C)CC[C@@H]12 please.
A) -1.4

* * *

- testTarget: GST-CIB1 : F-scrambled peptide (Homo sapiens, UniProt Q99828)
- Construct: made in house; host or cells: BL-21 plus RIL cells (E. coli)
- protocolSummary: FP scrambled-peptide counter screen, 1536-well format
- Type: binding
- protocolConditions: counterscreen, qHTS curve class; negative sign = inhibitory curve
Kindly return Fulfilled if reported Curve Class (counterscreen) is no lower than -1; return Not fulfilled if it is lower.

Previously resolved entries follow.
- compound: "Cn1ccc(=Nc2ccc(NC(=O)c3ccc(/N=c4\\ccn(C)c5ccc([N+](=O)[O-])cc45)cc3[N+](=O)[O-])cc2)cc1.O=C(O)C(F)(F)F"
  classification: "Not fulfilled"
- compound: "CSc1cc2c(s1)c1cnn(Cc3cccc(N)c3)c(=O)c1n2C.O=C(O)C(F)(F)F"
  classification: "Fulfilled"

Q) Curve Class (counterscreen) >= -1 for Cl.O=S(=O)(Nc1nccs1)c1ccc(NCc2cc(Cl)ccc2O)cc1 ?
A) Fulfilled

Q) Is Curve Class (counterscreen) for Cl.Nc1cc(C(F)(F)F)ccc1S at or above -1?
A) Not fulfilled

* * *

- testTarget: CIB1 and αIIb interaction (CIB1-GST : F-αIIb peptide) (Homo sapiens, UniProt Q99828)
- Construct: made in house; host or cells: BL-21 plus RIL cells (E. coli)
- Sequence (Q99828 1-191): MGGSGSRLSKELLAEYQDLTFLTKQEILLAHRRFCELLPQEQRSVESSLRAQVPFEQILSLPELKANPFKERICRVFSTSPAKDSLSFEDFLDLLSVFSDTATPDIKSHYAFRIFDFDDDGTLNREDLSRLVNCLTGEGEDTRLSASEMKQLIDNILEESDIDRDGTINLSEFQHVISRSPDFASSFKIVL
- protocolSummary: FP assay, 1536-well qHTS format (primary and confirmatory screen)
- Format: binding
- protocolConditions: qHTS primary screen hits, Table S2; read-out: IC50
measuredQuantity: pIC50
pIC50 (log units): -log10 of the concentration in mol/L.

Examples with their reported pIC50 follow.
- chemSmiles: "CCOC(=O)N1CCN([N+]([O-])=NOc2ccc([N+](=O)[O-])cc2[N+](=O)[O-])CC1"
  measuredQuantity: "pIC50"
  valueMeasured: 4.67
- chemSmiles: "Cc1ccc(S(=O)(=O)Nc2cnccc2C(=O)Nc2cccc3ccccc23)cc1.O=C(O)C(F)(F)F"
  measuredQuantity: "pIC50"
  valueMeasured: 4.30

Q) Given the entry O=C(O)C(F)(F)F.O=C(c1ccc2c(c1)ncn2-c1ccc(C(F)(F)F)cc1)N1CCCCC1 , what pIC50 was observed with CIB1 and αIIb interaction (CIB1-GST : F-αIIb peptide) (Homo sapiens, UniProt Q99828)?
A) 4.35

Q) Hi! What's the reported pIC50 for Cc1cnc(-c2ccccc2C(C)C)nc1NCc1ccc(-c2ccc(F)nc2)cc1.O=C(O)C(F)(F)F on CIB1 and αIIb interaction (CIB1-GST : F-αIIb peptide) (Homo sapiens, UniProt Q99828)?
A) 4.30

Data origin, for the record: paper PMC11249646
